Origin of the recorded values: the array DNA melting data of Ke et al. (doi:10.1101/2024.01.08.574731)

Overview of recorded Tm for various sequences
Assay: melting temperature; fluorescence melt of hairpins on a sequencing array, two-state fit, raised by 9.35 °C to match UV melts
Details: sodium 0.088 M

In the examples that follow, each entry is paired with its recorded Tm.
ITEM_SEQUENCE	Tm
GACAACGAAAGTTAGGTC ((((((....)))..)))	33.7 °C
GTTCAGCGAAAGCTTAAC (((.(((....))).)))	40.9 °C
GGCCCTCGAAAGAGGCC (((.(((....))))))	58.4 °C

## Task Bench note: what Tm did GTTGTACGAAAGTAAAC (((.(((....)))))) show?
## Result 39.7 °C

## Task Would you kindly repeat that for GTTAGCGAAAGCTAAAC ((((((....))).))) ?
## Result 46.5 °C

## Task GATCTAAGATAGATC ((((((...)))))) , same question.
## Result 37.9 °C

## Task Then GAGTGAGGAAACCCACTC (((((.(....).))))) ?
## Result 44.5 °C

## Task Further, for GATCAGTCTGCTGATC ((((((....)))))) ?
## Result 52.7 °C

## Task Next sequence: GTAGAAGCGAAAGCTTAC (((..(((....))))))
## Result 30.1 °C

## Task Same lookup for GCGGGTTTCCGC ((((....)))) , please.
## Result 59.2 °C

## Task Moving on to GGGGAGGGAAACCCCCCC ((((.((....)).))))
## Result 54.5 °C

## Task GACTAAGGAAACTTGGTC (((.(((....))).))) , same question.
## Result 39.3 °C

====

Reported Tm is given for each of the following sequences.
Assay: melting temperature; fluorescence melt of hairpins on a sequencing array, two-state fit, raised by 9.35 °C to match UV melts
Settings: sodium 0.088 M
Please respond with the number in °C and leave the unit unwritten.

Use these answered entries as a reference point.
ITEM_SEQUENCE	Tm / °C
GCGCAACGAAAGTTCCGC (((.(((....))).)))	49.3
CGCTCTCGGAAACGAGCG (((..(((....))))))	46
GATCCGAACACGGATC ((((((....))))))	57.2
GTGGGAGGAAACTCCTGC (..((((....))))..)	37.8
GTATTCCGAAAGGAGTAC (((.(((....))).)))	47.5

## Task Dear colleague, I am looking for the recorded Tm of the following sequence: GATCAAAGGATTGATC ((((((....))))))
## Result 40.9

## Task What do you get for GCGGGCCCCGC ((((...)))) ?
## Result 62.2

## Task Please do the same for GTTTTGCGAAAGCACAAC (((.(((....))).))) as well.
## Result 44.2

====

Test: melting temperature; fluorescence melt of hairpins on a sequencing array, two-state fit, raised by 9.35 °C to match UV melts
Conditions: sodium 0.088 M
TEST_READOUT: Tm (°C)
Write the answer as a number in °C, unit excluded.

## Task Requested read-out: Tm. Entry: GATCCACATCTGGATC ((((((....))))))
## Result 49.2

## Task Then this sequence: GCCTGGCGAAAGCCTTGC ((..(((....)))..))
## Result 42.1

## Task Try this sequence too: GATCGGAACCCGATC ((((((...))))))
## Result 54

## Task // next record GCATCGCGAAAGCAAAGC ((.(.((....)).).))
## Result 38.9

## Task Follow-up item: GGATGCGAAAGCACTTCC ((((((....)))..)))
## Result 42.2

## Task Here is the next sequence: GAGCGCGAAAGCGCCCTC ((((((....)))..)))
## Result 46.8

## Task Can you handle GATCGGTTAGCCGATC ((((((....)))))) next?
## Result 58.6

## Task Request: GTTACCCCGAAAGGGAAC (((..(((....))))))
## Result 32.9

## Task Now this one: GATAACCGAAAGGTATC (((.(((....))))))
## Result 38.9
